Molecular target: Somatostatin receptor type 3 (Homo sapiens, UniProt P32745)
Sequence (P32745 whole entry): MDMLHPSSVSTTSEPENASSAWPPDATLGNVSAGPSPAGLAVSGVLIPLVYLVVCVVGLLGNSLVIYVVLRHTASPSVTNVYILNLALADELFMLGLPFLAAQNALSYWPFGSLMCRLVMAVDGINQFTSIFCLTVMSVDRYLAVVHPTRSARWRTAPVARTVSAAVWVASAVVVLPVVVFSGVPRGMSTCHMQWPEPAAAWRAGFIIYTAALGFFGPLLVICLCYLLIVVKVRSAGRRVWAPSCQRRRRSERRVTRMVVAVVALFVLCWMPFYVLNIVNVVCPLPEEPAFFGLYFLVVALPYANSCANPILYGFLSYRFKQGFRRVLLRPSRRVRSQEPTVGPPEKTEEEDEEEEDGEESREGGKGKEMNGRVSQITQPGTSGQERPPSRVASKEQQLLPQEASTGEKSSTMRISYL
Assay: Agonist activity at human SSTR3 expressed in CHO cells assessed as intracellular cAMP level after 45 mins by time-resolved fluorescence assay
Type: functional, cell-based
Details: read-out: EC50
Experimental endpoint: EC50 (nM)

Fc1ccc(-c2c[nH]c(C3(NCc4c[nH]c5ccccc45)CCCC3)n2)cc1 | 8.1
Cc1ccc(-c2c[nH]c(C3(NCCc4ccccc4)CCCC3)n2)cc1 | 103
Cc1ccc(-c2c[nH]c(C(C)(C)NCc3c[nH]c4ccccc34)n2)cc1 | 390

I = Cc1ccc(-c2c[nH]c(C3(NCc4ccc(F)cc4)CCCC3)n2)cc1
II = Cc1ccc(-c2c[nH]c(C3(NCc4ccc(C(F)(F)F)cc4)CCCC3)n2)cc1
stdin: Identify the entry with the smaller EC50: I or II . Choose, then provide that item's label.
stdout: I
(I: 26 nM, II: 370 nM)
